// data source = the supplement of paper PMC10307832

system: RERF-LC-KJ; test: relative viability (nuclei count vs DMSO), 5 days (fraction); higher = more cells survive; settings: first compound 0.4 µM
endpoint name: relative viability

{"molecule": "Cc1sc2c(c1C)C(c1ccc(Cl)cc1)=N[C@@H](CC(=O)OC(C)(C)C)c1nnc(C)n1-2 [JQ1] + NC(=O)Nc1cc(-c2cccc(F)c2)sc1C(=O)N[C@H]1CCCNC1 [AZD7762] (partner 0.2 µM)", "target entity": "RERF-LC-KJ", "endpoint name": "relative viability", "number": 0.976}
{"molecule": "Cc1sc2c(c1C)C(c1ccc(Cl)cc1)=N[C@@H](CC(=O)OC(C)(C)C)c1nnc(C)n1-2 [JQ1] + CC(C)C[C@H](NC(=O)[C@H](Cc1ccccc1)NC(=O)c1cnccn1)B(O)O [Bortezomib] (partner 0.002 µM)", "target entity": "RERF-LC-KJ", "endpoint name": "relative viability", "number": 1.13}
